EXPERIMENT SUMMARY: qHTS of pediatric cancer cell lines to identify multiple opportunities for drug repurposing: Primary screen for SJ-GBM2 cells (AID 1347091)
EXPERIMENTAL CONDITIONS: SJ-GBM2 viability, CellTiter-Glo luminescence, 48 h; series mostly up to 46 µM
Results filed as inconclusive are left out. Active and inactive are the calls of the source. Calls come from the whole dose curve; as a rule, active = well fitted cell-killing curve with a large enough effect; inconclusive = small, poorly fitted or top-dose-only effect; inactive = no such curve, though single readings can be large or run the other way.
Thanks in advance; please answer with one of these: class 1 = active, class 0 = inactive

[Q] Recorded call for CC(C)NCC(O)c1ccc2ccccc2c1 (stereo unspecified) ?
[A] class 0

[Q] What would you report for CC(=O)Nc1ncc([N+](=O)[O-])s1 ?
[A] class 0

[Q] What would you report for COc1ccc(/C=N/NC(=O)c2ccncc2)cc1OC ?
[A] class 0

[Q] What would you report for C=C1c2cccc(O)c2C(O)=C2C(=O)[C@]3(O)C(O)=C(C(N)=O)C(=O)[C@@H](N(C)C)[C@@H]3[C@@H](O)[C@H]12 ?
[A] class 0

[Q] What would you report for NCCNc1cccc2ccccc12 ?
[A] class 0

[Q] What would you report for CN1CCC[C@@H]1CCO[C@](C)(c1ccccc1)c1ccc(Cl)cc1 ?
[A] class 1
